System: A2780 cells
test description: CCK-8 assay of cDDP cytotoxicity in parental A2780 cells
Type: cell-based
condition label: parental A2780 cell line, 1 h cDDP exposure
result type: pIC50
Remember the convention: pIC50 equals -log10 of concentration in molar.

Q. Tell me the measured pIC50 of [NH2][Pt]([NH2])([Cl])[Cl] [cDDP, Cisplatin] , please.
A. 4.99
